Measured cell proliferation accompanies every entry in the list below.
System: T47D cell line
Assay: MTT cytotoxicity assay
Format: cell-based
Conditions: 48h, 25 µM, Repeat No 1
Property: cell proliferation (%)

Molecule	Property	Measurement
O=C(N/N=C/c1cc(Cl)cc(I)c1O)c1cccc(I)c1 [Compound 20]	cell proliferation	79
O=C(N/N=C/c1cc(Br)cc(Br)c1O)c1cccc(I)c1 [Compound 21]	cell proliferation	79
O=C(N/N=C/c1cc(I)cc(I)c1O)c1ccccc1I [Compound 14]	cell proliferation	81
O=C(N/N=C/c1cc(Cl)cc(I)c1O)c1ccc(I)cc1 [Compound 27]	cell proliferation	88

---

Measured MIC accompanies every entry in the list below.
Test system: Micrococcus luteus ATCC 10240
Test: Broth microdilution MIC/MBC
Conditions: Micrococcus luteus, ATCC10240
Property: MIC (µg/mL)

Compound	Experimental Target	Property	Units Of Measure	Value Operator	Measurement
CO/N=C(\C(=O)N[C@@H]1C(=O)N2C(C(=O)O)=C(COC(N)=O)CS[C@H]12)c1ccco1 [CFX, cefuroxime, reference compound]	Micrococcus luteus ATCC 10240	MIC	µg/mL	=	0.98
O=C(N/N=C/c1cc(Br)cc(Br)c1O)c1ccc(I)cc1	Micrococcus luteus ATCC 10240	MIC	µg/mL	>	1000
O=C(N/N=C/c1cc(I)cc(I)c1O)c1ccccc1I	Micrococcus luteus ATCC 10240	MIC	µg/mL	=	62.5
O=C(N/N=C/c1cccc([N+](=O)[O-])c1O)c1ccccc1I	Micrococcus luteus ATCC 10240	MIC	µg/mL	=	1000
NNC(=O)c1ccc(I)cc1 [Compound 6, 4-iodobenzohydrazide]	Micrococcus luteus ATCC 10240	MIC	µg/mL	=	500
O=C1CN(/N=C/c2ccc([N+](=O)[O-])o2)C(=O)N1 [NIT, nitrofurantoin, reference compound]	Micrococcus luteus ATCC 10240	MIC	µg/mL	=	62.5
O=C(N/N=C/c1cc(Cl)cc(Cl)c1O)c1ccc(I)cc1	Micrococcus luteus ATCC 10240	MIC	µg/mL	=	500
O=C(N/N=C/c1ccccc1O)c1ccc(I)cc1	Micrococcus luteus ATCC 10240	MIC	µg/mL	=	500
CCOc1cccc(/C=N/NC(=O)c2cccc(I)c2)c1O	Micrococcus luteus ATCC 10240	MIC	µg/mL	=	31.2
O=C(N/N=C/c1cc(O)ccc1O)c1ccccc1I	Micrococcus luteus ATCC 10240	MIC	µg/mL	>	1000
O=C(N/N=C/c1cc(O)ccc1O)c1ccc(I)cc1	Micrococcus luteus ATCC 10240	MIC	µg/mL	=	500
O=C(N/N=C/c1cc(Br)cc(Br)c1O)c1cccc(I)c1	Micrococcus luteus ATCC 10240	MIC	µg/mL	=	3.91
NNC(=O)c1ccccc1I [Compound 4, 2-iodobenzohydrazide]	Micrococcus luteus ATCC 10240	MIC	µg/mL	=	1000
NNC(=O)c1cccc(I)c1 [Compound 5, 3-iodobenzohydrazide]	Micrococcus luteus ATCC 10240	MIC	µg/mL	=	1000
O=C(N/N=C/c1cc(Cl)cc(I)c1O)c1cccc(I)c1	Micrococcus luteus ATCC 10240	MIC	µg/mL	=	1.95
O=C(N/N=C/c1cc(Cl)cc(I)c1O)c1ccccc1I	Micrococcus luteus ATCC 10240	MIC	µg/mL	=	31.2
O=C(N/N=C/c1cc(Cl)cc(I)c1O)c1ccc(I)cc1	Micrococcus luteus ATCC 10240	MIC	µg/mL	=	125
CCOc1cccc(/C=N/NC(=O)c2ccccc2I)c1O	Micrococcus luteus ATCC 10240	MIC	µg/mL	>	1000
CCOc1cccc(/C=N/NC(=O)c2ccc(I)cc2)c1O	Micrococcus luteus ATCC 10240	MIC	µg/mL	=	31.2
O=C(N/N=C/c1cc(O)ccc1O)c1cccc(I)c1	Micrococcus luteus ATCC 10240	MIC	µg/mL	>	1000
O=C(N/N=C/c1cc(Cl)cc(Cl)c1O)c1cccc(I)c1	Micrococcus luteus ATCC 10240	MIC	µg/mL	=	15.6
O=C(N/N=C/c1cccc([N+](=O)[O-])c1O)c1cccc(I)c1	Micrococcus luteus ATCC 10240	MIC	µg/mL	=	31.2
